# Test system: HCT-116 colon
# Assay Remarks: NCI tumour cell line growth inhibition, 48 h
Measured TGI accompanies every entry in the list below.
Measured Parameter: TGI

INSERT INTO assay_data (compound, result) VALUES
  ('COc1cc(C2C3=C(COC3=O)N(CCO)c3cc4c(cc32)OCO4)cc(OC)c1O (stereo not given)', '> 26.3 µM'),
  ('C=CCc1cc(C(Cc2ccccc2)NC(C)C)cc(OCc2ccccc2)c1OCc1ccccc1 (stereo not given)', '31.2 µM'),
  ('Cc1cccc2c(N)c3cccc(C(=O)NCC[N+]4(Cc5ccc([N+](=O)[O-])cc5)CCOCC4)c3nc12', '58.5 µM'),
  ('Cc1nc2[nH]ncn2c(=O)c1CCO', '> 10 µM'),
  ('CN(/N=C/c1cccc2cccnc12)c1c([N+](=O)[O-])cc([N+](=O)[O-])cc1[N+](=O)[O-]', '> 100 µM');

FYI, the data here is from PubChem BioAssay (NCI).
